All values here come from ChEMBL document CHEMBL6182856.

measurement description: Phototoxicity against human A549 cells assessed as inhibition of cell growth incubated for 24 hrs measured under hypoxia conditions and after two-photon excitation upon irradiation with light at 808 nm, 200 mW/cm2 for 10 mins by MTT assay
Assay type: functional, cell-based
condition context: A549, light or radiation study
readout label: pIC50
Conceptually, pIC50 converts a concentration in mol/L into minus its log10.

Ask: Quick check: pIC50 of `CCn1c2ccc(/C=C/c3cc[n+](C)c4ccccc34)cc2c2cc(N(c3ccccc3)c3ccccc3)ccc21.[I-]` ?
Reply: 6.70

====

Test system: A549
measurement description: Cytotoxicity against human A549 cells assessed as inhibition of cell growth incubated for 24 hrs measured under hypoxia conditions by MTT assay
Format: functional, cell-based
condition context: A549, 24 h
readout label: pIC50
Scale: negative log10 of molar concentration, which is what pIC50 denotes.

Ask: Entry under review: `CCn1c2ccc(/C=C/c3cc[n+](C)c4ccccc34)cc2c2cc(N(c3ccccc3)c3ccccc3)ccc21.[I-]` . Reported pIC50?
Reply: 5.71
